Just for reference, patent US20070077215A1 is where these values come from.

SYSTEM: Type-1 15-PGDH (Homo sapiens)
Sequence (P15428 1-266): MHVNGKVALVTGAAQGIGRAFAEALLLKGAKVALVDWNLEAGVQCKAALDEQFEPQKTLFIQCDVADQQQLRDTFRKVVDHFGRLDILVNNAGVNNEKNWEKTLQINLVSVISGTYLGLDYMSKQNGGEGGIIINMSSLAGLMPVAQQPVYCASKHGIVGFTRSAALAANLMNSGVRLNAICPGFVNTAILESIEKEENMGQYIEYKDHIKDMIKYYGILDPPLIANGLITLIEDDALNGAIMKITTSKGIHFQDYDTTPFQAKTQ
Consider the following compounds and their measured IC50 readings.
State just the number; it will be interpreted in µM.

Look up IC50 of CCOC(=O)c1cccc(-c2ccc(CC3SC(=O)NC3=O)o2)c1 (centres unmarked) [Compound 4] and report it.
4.6

Look up IC50 of O=C1NC(=O)C(Cc2ccc(-c3ccc(C(F)(F)F)cc3)s2)S1 (centres unmarked) [Compound 5] and report it.
17.7

Look up IC50 of O=C1NC(=O)C(Cc2ccc(-c3cccc(CO)c3)s2)S1 (centres unmarked) [Compound 7] and report it.
37.6

Look up IC50 of O=C1NC(=O)C(Cc2ccc(-c3cccc(Cl)c3)o2)S1 (centres unmarked) [Compound 3] and report it.
5.2

Look up IC50 of O=C1N=C(O)C(Cc2ccc(-c3ccc(C(=O)O)cc3)o2)S1 (centres unmarked) [Compound 1] and report it.
3
